Test system: MDR1
Experiment: Bi-directional permeability via MDR1-MDCKII cells
Format: in vitro ADME
Conditions: dog, MDCK-MDR1, pH 7.4; 2 μM (digoxin 10 μM), 2.5 h
Threshold rule: Papp A→B at 2.5 h, 2 μM greater than or equal to 10 ×10⁻⁶ cm/s is 1; below that, 0.

molecule	class
COCCc1ccc(OCC(O)CNC(C)C)cc1 (centres unmarked)	1
CC(C)(C)NCC(O)COc1cccc2c1CC(O)C(O)C2 (centres unmarked)	0
COc1c(C)c2c(c(O)c1C/C=C(\C)CCC(=O)O)C(=O)OC2	1
COc1c(C)c2c(c(O)c1C/C=C(\C)CCC(=O)OCCN1CCCC1)C(=O)OC2	1

Shift focus to the following entry.
IN: Check this molecule for Papp A→B at 2.5 h, 2 μM at or above 10 ×10⁻⁶ cm/s: C[C@H]1O[C@@H](O[C@H]2[C@@H](O)C[C@H](O[C@H]3[C@@H](O)C[C@H](O[C@H]4CC[C@@]5(C)[C@H](CC[C@@H]6[C@@H]5C[C@@H](O)[C@]5(C)[C@@H](C7=CC(=O)OC7)CC[C@]65O)C4)O[C@@H]3C)O[C@@H]2C)C[C@H](O)[C@@H]1O
OUT: 0

----------
Test: Brain homogenate binding, equilibrium dialysis
Assay type: in vitro ADME, mouse
Conditions: CD-1, mouse, pooled brain homogenate, pH 7.4, 37°C
quantityName: fraction unbound at 4 h, 2 μM
One number for each entry.

IN: I have this molecule here, CC(C)NCC(O)COc1cccc2ccccc12 (stereo not shown) , and I need its recorded fraction unbound at 4 h, 2 μM.
OUT: 0.023

----------
Test system: MDR1-MDCKII cells
Assay: Bi-directional permeability via MDR1-MDCKII cells
Assay type: in vitro ADME

molecule	Rank of Papp
C[C@H]1O[C@@H](O[C@H]2[C@@H](O)C[C@H](O[C@H]3[C@@H](O)C[C@H](O[C@H]4CC[C@@]5(C)[C@H](CC[C@@H]6[C@@H]5C[C@@H](O)[C@]5(C)[C@@H](C7=CC(=O)OC7)CC[C@]65O)C4)O[C@@H]3C)O[C@@H]2C)C[C@H](O)[C@@H]1O	Low
COc1c(C)c2c(c(O)c1C/C=C(\C)CCC(=O)OCCN1CCCC1)C(=O)OC2	High
COCCc1ccc(OCC(O)CNC(C)C)cc1 (stereo not shown)	High
CC(C)(C)NCC(O)COc1cccc2c1CC(O)C(O)C2 (stereo not shown)	Low

----------
Tested on: MDR1
Test: Bi-directional permeability via MDR1-MDCKII cells
Type: in vitro ADME
Settings: dog, MDCK-MDR1, pH 7.4; 2 μM (digoxin 10 μM), 2.5 h
Experimental: MDR1-MDCKII permeability assays were performed by Wuxi AppTec Co. Briefly, MDR1-MDCK1 cells were seeded onto polycarbonate membranes in 96-well insert system plates and allowed to develop into monolayers. […] The plate was incubated for 2.5 h (37°C, 5% CO2) and the media was sampled on either side and the compound present was quantified by LC-MS/MS and the concentrations were used to calculate the efflux ratio. Digoxin (10 μM), nadolol (2 μM), and metoprolol (2 μM) were used as controls.
Please go through the items and note down their Papp B→A at 2.5 h, 2 μM.
Numbers only, in ×10⁻⁶ cm/s.

// worked examples, Papp B→A at 2.5 h, 2 μM included
molecule	Papp B→A at 2.5 h, 2 μM [×10⁻⁶ cm/s]
C[C@H]1O[C@@H](O[C@H]2[C@@H](O)C[C@H](O[C@H]3[C@@H](O)C[C@H](O[C@H]4CC[C@@]5(C)[C@H](CC[C@@H]6[C@@H]5C[C@@H](O)[C@]5(C)[C@@H](C7=CC(=O)OC7)CC[C@]65O)C4)O[C@@H]3C)O[C@@H]2C)C[C@H](O)[C@@H]1O [Digoxin]	11.8
COc1c(C)c2c(c(O)c1C/C=C(\C)CCC(=O)O)C(=O)OC2 [MPA, Mycophenolic acid]	10

Could you now consider this next molecule?
IN: I have this molecule here, COc1c(C)c2c(c(O)c1C/C=C(\C)CCC(=O)OCCN1CCCC1)C(=O)OC2 [Compound 3] , and I need its recorded Papp B→A at 2.5 h, 2 μM.
OUT: 12.5
